Test: soluble on expression in E. coli; label from the status in PepcDB or PDB records

RESIDUES | soluble on expression in E. coli
MPEGILPIERDLLRFKEIVRGEVKKRVREFLTREELFGQVEGRLVSIPLPQLEIPKIVHGEPLGEGLGLGGPGEEALGPGGHIPVAELELEEFLDLVGEALRLPRLRPKGEGEVTEEALRHTTIARKGPRGLRHVRRTLKESLKRALQSGEYRPEDPLLVPEREDLRYKAPRRKPIPHAQAVVLFALDVSGSMREEELKLVKTLSFWITLWIKRHFPRLERRYLLHDAEAWEVPEEEFFKAREGGGTRISSALLLAEEILKAYPEAFYNRYLFHFSDGENWQGDTPLALEALRRLLPSLALYGYAQVESPYGQGHFLEEVQEALGGREGVALAAVRGREDLPVALKRLLGG | soluble
MTEPIFMVGARGCGMTTVGRELARALGYEFVDTDIFMQHTSGMTVADVVAAEGWPGFRRRESEALQAVATPNRVVATGGGMVLLEQNRQFMRAHGTVVYLFAPAEELALRLQASLQAHQRPTLTGRPIAEEMEAVLREREALYQDVAHYVVDATQPPAAIVCELMQTMRLPAA | soluble

====

Assay: soluble on expression in E. coli; label from the status in PepcDB or PDB records
ENDPOINT NAME: soluble on expression in E. coli

RESIDUES | RECORDED RESULT
MGEIIKESDKRVALKLPANVTEIDDRAFLGCTRLESIDLSACTSLTAIKLAAFKGCTSLKAVQLPQSLTTIGHFAFEGCTALKEVELPQNLTVIGTDAFKGCSIETLVIHCDIKGTIIENFTKKDEVNKNVKKLTLGKGVTTIGNYAFYIIGYSKLAAVDFSACTALTEIGENAFAYSKLTNVNLSACIKLTEIGKSAFSNCTDLTNVDLSGCTALTTIGEQAFNSCYEATVKLPTGITAIGNEAFGENDEDFLCKNVLIPRSHAATIKPLVTASDYPEDRIREY | not soluble
MAHHHHHHMCVHTFVRMNAWMCSSLSITQQNTITPPHYMQNSAFRVASLLQSRHRRGICDEGESTLAKLTQGVEMFLQHAADVPPVMLEKLSEVGDADTSTNGCSERHDDVDESMDEAEVHLSVVAGVLEPREMPKNVSTMSGLLLPTADNRKALERQKVEEAQAMLNLLAALTANNKKENTIGALTGTSEAEVDDESTTTSDESVVICYADELESDTTSSCSEADAQQEPQRSARIIELN | not soluble
MGSDKIHHHHHHLGFKIEAELLQAMKDLKDSVPASGSERVRNEFIQILLSELPSQGIRRLLELGLLERLIPELMPAIGFDTRSSYHDKDVFEHSLAVLDNTEPNLTLRLAALLHDIDKPNSLTVDEDGEGYCYGHASGGSEIARTILGRLNFDRKTIKAVSAIIKEHMNDFENISELSIKRLIRRVGPDNIDRLFELQLADIKGSKLSSRSPERITKTRNKCFEVLSRREPLTVHDLDISGYDLFSLGYPPGKEIGEAMDYLLDQVINNPSLNQRDTLIALLMNQ | not soluble
MGSDKIHHHHHHMTAQQGVPIKITNKEIAQEFLDKYDTFLFDCDGVLWLGSQALPYTLEILNLLKQLGKQLIFVTNNSTKSRLAYTKKFASFGIDVKEEQIFTSGYASAVYIRDFLKLQPGKDKVWVFGESGIGEELKLMGYESLGGADSRLDTPFDAAKSPFLVNGLDKDVSCVIAGLDTKVNYHRLAVTLQYLQKDSVHFVGTNVDSTFPQKGYTFPGAGSMIESLAFSSNRRPSYCGKPNQNMLNSIISAFNLDRSKCCMVGDRLNTDMKFGVEGGLGGTLLVLSGIETEERALKISHDYPRPKFYIDKLGDIYTLTNNEL | not soluble
MGSDKIHHHHHHVSNGAATRVRRSREKILGAAESVFLQHGFLGTNMDVIADTAGVSKQTVYAHFKSKEALFIDVVEAMTGGAAEEIGEDIEDVFGDRKAEDYLLEVAIDQLTVVLTPRLMQLRRMVIGEVERFPELGRSLYVNGPIRSITRLTRACAHYTRIGELITPDPQAAATQFNWIVMGAPTNAAMLLGDAGIPTSAQLQAHATEAVRIFLCAYGAKQMHPR | not soluble

====

Test: soluble on expression in E. coli; label from the status in PepcDB or PDB records

RESIDUES | soluble on expression in E. coli
MAHHHHHHMALQENRDSYKVKALSLSEFVQQCSDCHQLCLEKTVRVLDNRSRAPRGWEALFNSVAEERRSEDLDLCESRCRYMQTTCPSQDKVQQYEQALAAASLKLKKSTPPNPSVLQDASRCEHAVEVFSNVLFALAHKPSKVSFPTKDLKTGGNTDAESHAGAPTEAHRKVLEGAKNMDNDVSCRSSKLRHERFGSKAQDVASSTGSSLAPDTAAASPASSGTTPKW | not soluble
SLHSMTAFAADEHLTPWGLLACELRSVNHRFLDIVIRLPEELRALESQLRERVAARVSRGKLDLTVRLSPQEIHTGKLVVNELLLSHLSTLALRLSAQFPALRVTFAELLQIPGVLKGEQIDMTTLQGHAVALLDKVLDNFIATREREGLKMQAMIAQRASAIERIVGEVRTLIPTIREGQHNKLNARMNHLSYPVDHGRIEQELVLWLQ | not soluble
GMDVTIERVNDFDGYNWLPLLAKSSQEGFQLVERMLRNRREESFQEDGEAMFVALSTTNQVLACGGYMKQSGQARTGRIRHVYVLPEARSHGIGTALLEKIMSEAFLTYDRLVLYSEQADPFYQGLGFQLVSGEKITHTLDKTAFADSNR | soluble
MGSDKIHHHHHHAAGSPEEDMEDRVRIDPVAGGYYPSISPSAQTRGATPDGETLKDRPIFLLEDGSTIRLVVYDDAKNLLEEYSKAYLVRNAGTSGSSLLYPCEVDDNGAVISSSSTPLYMKAGTYYFRILSPAKALNSKGFVNIGNGEYLLATDDRYTQTAMTAVTITKIDEGGTLNNVQTLYLPPIINQTARMQFTVRAGEGVHTLEMLAEGIEISGIQQPLDNTTSFDWVNGDVLPVKVGDQSASVRITQATRNADNSLVAHTGVLPTDARSHSISVLLNLKVNGNPTQYQMLLTGLYLTAGHSYNYTATVKISNGVTVLTWQNRSWTENVVMDK | not soluble
KKPIPTLFLHGFGGSANSEKFMVKQAEKRGVTKDIITAYVSKDGAVTFKGKLRKDAVNPIVKIELENNRQGYLDKNAAWFKNVLTKLQSEYNFDKFNFVGHSMGNLTFAQYMMTYGNDKSLPQLNKQVNIAGTFNGVLNMNEDVNEITVDKDGKPSRMNQPYQQLRVLKDIYKGKGIEVLNIYGDLKDGTHSDGRVSNSSSKSLKYLLGNSPKSYRESKYEGEPAQHSQLHENENVANELIDFLWKK | not soluble
QRSYERDFPHHDRICIVKTHGTRQSQEGDKPEELDFSQVSGGVAPAIQEEIPGVELATRTTLYGTSKMILEDNKTYETKTLLAEPAFLDMFGVELIAGVRDSALRDNMTCLISESLARKMGGDVLGKRLRPAESKSDRAITIGGVFEDLPHNSSIQADMLLPITWMPAESLNNWIGNDRYIAYVRLRPGVSPESLDEALLEMQKRHQDMEVFRKAGVELHYSLTPFNRLRLEDPTLVNMLRIQQ | soluble

====

Experiment: soluble on expression in E. coli; label from the status in PepcDB or PDB records

RESIDUES | soluble on expression in E. coli
MGSDKIHHHHHHMYNVMNCIIVDDEPLAREAMKLLIEEAECLQLVGSFNSAATASDFMEQHVVDLVFLDIQMPGITGIEFARTISKRTLVIFTTAYTEYALDSYEVDAIDYLIKPVEAERFQKAVEKAQSYHSLLLQEEKEAIETIVAAEYFFVKAERRYFKVNFSDILFVEGLKDYVILQLGEQRIITRMSLKAVFDLLPKDSFLRVNKSYIVNTAHIDSFDNNDIFIKSYEIAIGNSYRDDFFEGFVMKQQRW | not soluble
MGHHHHHHSHMIEVLTTTDSQKLLHQLNALLEQESRCQPKVCGLRLIESAHDNGLRMTARLRDFEVKDLLSLTQFFGFDTETFSLAVNLLDRFLSKMKVQPKHLGCVGLSCFYLAVKSIEEERNVPLATDLIRISQYRFTVSDLMRMEKIVLEKVCWKVKATTAFQFLQLYYSLLQENLPLERRNSINFERLEAQLKACHCRIIFSKAKPSVLALSIIALEIQAQKCVELTEGIECLQKHSKINGRDLTFWQELVSKCLTEYSSNKCSKPNVQKLKWIVSGRTARQLKHSYYRITHLPTIPEMVP | not soluble

====

Assay: soluble on expression in E. coli; label from the status in PepcDB or PDB records

RESIDUES | soluble on expression in E. coli
MAANIQQQFGEQLLRAAQVVEEQIDQEMNKLENLEEDDLEVIRRQRMEQMKKAQKDRIEMLSHGHGKYEEVADEKEFFEATKKSDKVVCLFYLPGNFRCKIVDKHFEILARKHVGTRFIHVNAEKVHFLTTRLNIRVIPSIAIVVKQQTVDYIRGFDELGGKDEFTTETMENRLARSEVLTVEKKHTAPAKKKIIRSGVEEYDNEEDW | not soluble
MLDLIDSAKESVWIVSPYFVPDEEALAVIRRVAMSGVDVRVIIPGKGDRGISFHGSNAYVKTMIEAGAKMYAYADDSFVHAKAMLVDGTRAAIGTANFDVRSFRLNHELMVFLYDESEAMLHLKRDFKKDFEDSRLFTMKDMENKPLLTRIKEVLSSLLSPIL | not soluble
